- target.entity: DLG1_1, Q12959
- method.notes: holdup assay
- Set-up: key: below the threshold = too weak to quantify, mostly under pKd 3.1 to 4
- condition.description: plain residues with an end cap or a label only (N-terminal biotin on a linker: ado-ado)
attribute.measured: pKd

Examples from the recorded data:
[[record]]
binder = "LPHPHSTTRV [NLGN2, Q8NFZ4]"
value = 3.78

[[record]]
binder = "TSSMRGMDAV [RSRC2, Q7L4I2]"
value = "below the threshold"

[[record]]
binder = "TACCHSETVV [TGFA, P01135]"
value = 4.56

[[record]]
binder = "GSGAVEMESV [AQP6, Q13520]"
value = "below the threshold"


Task item: Which pKd reading was recorded for the binder YLEPVLSSEL [ATP2A2, P16615;P16615-3] ?
Reply: below the threshold

Task item: Which pKd reading was recorded for the binder SAKVRTVTSV [RASL11B, Q9BPW5] ?
Reply: 4.42

Task item: Which pKd reading was recorded for the binder PRAEAEDSFL [PDGFRB, P09619] ?
Reply: below the threshold

Task item: Which pKd reading was recorded for the binder DDEDRLVIEI [ZNF831, Q5JPB2] ?
Reply: below the threshold
